Molecular target: Hsc70-NBD (Homo sapiens, UniProt P11142)
Sequence (P11142 1-385): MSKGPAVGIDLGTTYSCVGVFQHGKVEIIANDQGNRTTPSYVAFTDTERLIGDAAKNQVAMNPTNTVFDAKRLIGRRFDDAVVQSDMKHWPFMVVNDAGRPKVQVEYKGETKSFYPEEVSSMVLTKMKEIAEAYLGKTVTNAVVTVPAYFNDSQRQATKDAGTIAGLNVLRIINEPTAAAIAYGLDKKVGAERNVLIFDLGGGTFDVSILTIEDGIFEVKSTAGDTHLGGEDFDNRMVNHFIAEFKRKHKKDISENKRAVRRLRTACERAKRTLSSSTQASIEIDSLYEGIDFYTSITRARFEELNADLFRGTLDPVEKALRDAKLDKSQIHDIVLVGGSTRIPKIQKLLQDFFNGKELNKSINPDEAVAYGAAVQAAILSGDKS
Assay: Competitive inhibition of ATPase activity
Assay type: biochemical
Conditions: read-out: KIapp; Hsc70-NBD, ATP 50 μM, Morrison fit; ~ denotes ambiguous data
observationType: pKi
Answers are plain numbers, as −log10 of the molar value.

Which measured pKi value corresponds to Nc1ncnc2c1ncn2[C@@H]1O[C@H](COP(=O)(O)OP(=O)(O)O)[C@@H](O)[C@H]1O [ADP, reference compound] ?
3.62

----------
Target: Hsc70-NBD (Homo sapiens, UniProt P11142)
Assay: Competitive inhibition of ATPase activity
Format: biochemical
Task for the reader: assign each of the following compounds its reported Ki.
One number for each entry, in µM.

compound | systemUnderTest | outputUnit | measuredNumber
O=P(O)(O)OP(=O)(O)OC[C@H]1O[C@@H](n2cnc3c(NC4CCCCC4)ncnc32)[C@H](O)[C@@H]1O [6-cHe ADP, N6-cyclohexyladenosine-5’-diphosphate] | Hsc70-NBD (Homo sapiens, UniProt P11142) | µM | 622

Okay, here is my list. What is Ki for each of these?
1. O=P(O)(O)OP(=O)(O)OC[C@H]1O[C@@H](n2cnc3c(NCc4ccccc4)ncnc32)[C@H](O)[C@@H]1O [6-Bn ADP, N6-benzyladenosine-5’-diphosphate]
2. O=P(O)(O)OP(=O)(O)OC[C@H]1O[C@@H](n2cnc3c(NCc4ccco4)ncnc32)[C@H](O)[C@@H]1O [6-Fu ADP, N6-furfuryladenosine-5’-diphosphate]
3. Cc1cccc(CNc2ncnc3c2ncn3[C@@H]2O[C@H](COP(=O)(O)OP(=O)(O)O)[C@@H](O)[C@H]2O)c1
4. O=P(O)(O)OP(=O)(O)OC[C@H]1O[C@@H](n2cnc3c(NCCc4ccccc4)ncnc32)[C@H](O)[C@@H]1O

1: 295; 2: 723; 3: 682; 4: 445
